# protocol-summary: qHTS for Inhibitors of the Functional Ribonucleoprotein Complex (vRNP) of Lymphocytic Choriomeningitis Arenaviruses (LCMV): Viability assay - alamar blue signal for LCMV Primary Screen (AID 1347085); note: nearly all actives have a fitted effect of over 80% in size
# measurement-parameters: alamar blue viability counter-screen, LCMV vRNP screen cells; series mostly up to 57.5 µM
Inconclusive results are not listed. Calls of active or inactive are those of the source. Calls come from the whole dose curve; tested in HEK293 reporter line.
Respond only with the outcome that fits, drawn from T (active), F (inactive)

> print(dat)
                           smiles.structure  group
1  COc1cccc2c1C(=O)c1c(O)c3c(c(O)c1C2=O)C[C@@](O)(C(=O)CO)C[C@H]3O[C@H]1C[C@H](N)[C@H](O)[C@H](C)O1      T
2  C[C@@H](CN1CCC(Cc2ccccc2)CC1)[C@@H](O)c1ccc(O)cc1      F
3  Nc1nc(=O)n([C@H]2C[C@H](O)[C@@H](CO)O2)cc1F      T
4  O=C(O)/C(=C/c1c(C(=O)O)[nH]c2cc(Cl)cc(Cl)c12)c1ccccc1      F

Could you kindly confirm the outcome this assay logged for NC(=O)c1nnn(Cc2cc(Cl)c(C(=O)c3ccc(Cl)cc3)c(Cl)c2)c1N ?
F

* * *

# protocol-summary: qHTS for Inhibitors of the Functional Ribonucleoprotein Complex (vRNP) of Lassa (LASV) Arenavirus: Viability assay - alamar blue signal for LASV Primary Screen (AID 1347083); note: nearly all actives have a fitted effect of over 80% in size
# measurement-parameters: cell viability, alamar blue fluorescence (LASV minigenome counter-screen); series mostly up to 57.5 µM
Results filed as inconclusive are left out. Calls of active or inactive are those of the source. Calls follow the shape of the full dose curve; tested in HEK293 reporter line.
Choose the fitting class; nothing outside y = active, n = inactive is accepted.

Completed entries (count: 5):
compound	group
Clc1cccc(-c2nnnn2Cc2cccnc2)c1Cl	n
O=c1[nH]c2ccccc2c2ccccc12	n
CN(CC=CC#CC(C)(C)C)Cc1cccc2ccccc12	n
C=C1C(=O)OC2C=C(CO)CCC=C(CO)CC(OC(=O)C(C)C)C12 (stereo unspecified)	n
O=C(Nc1nc2ccccc2n1CCN1CCOCC1)c1cccc([N+](=O)[O-])c1	n

Query: recorded result category for COc1cc(CCc2ccccc2)c(C(=O)O)c(O)c1CC=C(C)C in this test
n

I'd appreciate the recorded outcome for C#Cc1cccc(Nc2ncnc3cc(OCCOC)c(OCCO)cc23)c1 from this test.
y

// outcome(item) with item = C=C1C2[C@H](OC(C)=O)[C@@H]3CC(=O)[C@]4(C)OC[C@@]3(C)[C@@]4(O)[C@@H](OC(C)=O)[C@H](OC(C)=O)[C@@]2(COC(=O)c2ccccc2)[C@@H](OC(C)=O)C[C@@H]1O (stereo partly specified)
n

Kindly provide the recorded test outcome for the following compound: OC[C@H]1O[C@@H](OC[C@H]2O[C@@H](O)[C@H](O)[C@@H](O)[C@@H]2O)[C@H](O)[C@@H](O)[C@@H]1O
n

Would you mind telling me which call this test gave CC(C)(O)CCc1ccc(OCc2cc(-c3cccc(OC(F)F)c3)c3ncccc3c2)cc1 ?
n

For O=C(N[C@@H](Cc1ccccc1)C(=O)CCl)OCc1ccccc1 , what call appears in the results of this test?
n

Query: recorded result category for COc1ccc2[nH]cc(CCO)c2c1 in this test
n

Record request — test call for OCCC(O)CO (stereo unspecified)
n

Dear all, I need the recorded test outcome for C[C@]12C=CC(=O)C=C1CC[C@@H]1[C@@H]2CC[C@]2(C)C(=O)CC[C@@H]12 , thank you.
n

For Cc1cc2c(cc1Cl)N(C(=O)Nc1ccnc3ccccc13)CC2 , what call appears in the results of this test?
n

Hey, what did the test say about Cc1ccc([N+](=O)[O-])cc1S(=O)(=O)N(C)C ?
n

* * *

# experimental-target: Nuclear receptor ROR-gamma (Homo sapiens)
# protocol-summary: qHTS assay for small molecule antagonists of the retinoid-related orphan receptor gamma (ROR-gamma) signaling pathway (AID 651802); note: nearly all actives have a fitted effect of over 60% in size
# measurement-parameters: ROR-gamma antagonist cell reporter assay; series mostly up to 92.2 µM
Inconclusive results are not listed. Calls of active or inactive are those of the source. Calls come from the whole dose curve; as a rule, active = well fitted inhibition curve with a large enough effect; inconclusive = small, poorly fitted or top-dose-only effect; inactive = no such curve, though single readings can be large or run the other way.
Outcomes you can answer with include only these: yes for active, no for inactive

Solved cases below.
> print(dat)
                           smiles.structure                       experimental.target  group
1  NC(=O)c1ncn([C@@H]2O[C@H](CO)[C@@H](O)[C@H]2O)n1  Nuclear receptor ROR-gamma (Homo sapiens)    yes
2                                Oc1ccccc1O  Nuclear receptor ROR-gamma (Homo sapiens)    yes
3               Oc1c(Cl)c(Cl)c(Cl)c(Cl)c1Cl  Nuclear receptor ROR-gamma (Homo sapiens)    yes
4                               O=Cc1ccccc1  Nuclear receptor ROR-gamma (Homo sapiens)     no
5    Cc1cc(O)c2c(c1)C(=O)c1cc(O)cc(O)c1C2=O  Nuclear receptor ROR-gamma (Homo sapiens)    yes

Which outcome was assigned to CC(C)COC(=O)c1ccccc1C(=O)OCC(C)C in this test?
no

// outcome(item) with item = COC(=O)c1ccccc1C(=O)OC
no

Please state the recorded outcome for this compound: CN1CCC[C@H]1c1cccnc1
no

For CC(=O)/C=C/c1ccccc1 , what call appears in the results of this test?
no

* * *

# protocol-summary: qHTS for Inhibitors of the Functional Ribonucleoprotein Complex (vRNP) of Lassa (LASV) Arenavirus: Viability assay - alamar blue signal for LASV Primary Screen (AID 1347083); note: nearly all actives have a fitted effect of over 80% in size
# measurement-parameters: cell viability, alamar blue fluorescence (LASV minigenome counter-screen); series mostly up to 57.5 µM
Inconclusive results are not listed. Activity calls are given as the source filed them. Calls come from the whole dose curve; tested in HEK293 reporter line.
Assign a class; possible classes are TRUE for active, FALSE for inactive

Worked examples, 5 compounds total:
compound	group
C=CC(C)=CCC=C(C)C	FALSE
CC1(C)C[C@H](O)[C@@]23C[C@@H](OC2=O)[C@]2(C)C(=CCC4[C@@]5(C)CC[C@H](O)C(C)(C)C5CC[C@]42C)[C@@H]3C1 (stereo not given in full)	FALSE
CCN1C[C@]2(COC)CC[C@H](O)[C@@]34C5C[C@@H]6[C@@H](OC)C[C@@](O)(C5[C@H]6O)[C@](O)([C@@H](OC)C23)[C@@H]14 (stereo not given in full)	FALSE
CC(=O)OCC(=O)[C@@]1(O)CC[C@H]2[C@@H]3CCC4=CC(=O)C=C[C@]4(C)[C@@H]3[C@@H](O)C[C@@]21C	FALSE
CNCCC(Oc1ccccc1C)c1ccccc1 (stereo not given)	FALSE

Call for entry NC(N)=NCc1cccc(I)c1 :
FALSE

Any idea what this test logged for N[C@@H](CSS(=O)(=O)O)C(=O)O ?
FALSE

* * *

# experimental-target: Nucleoprotein (Lymphocytic choriomeningitis virus (strain Armstrong)) (UniProt P09992)
# Sequence (P09992 whole entry, looked up): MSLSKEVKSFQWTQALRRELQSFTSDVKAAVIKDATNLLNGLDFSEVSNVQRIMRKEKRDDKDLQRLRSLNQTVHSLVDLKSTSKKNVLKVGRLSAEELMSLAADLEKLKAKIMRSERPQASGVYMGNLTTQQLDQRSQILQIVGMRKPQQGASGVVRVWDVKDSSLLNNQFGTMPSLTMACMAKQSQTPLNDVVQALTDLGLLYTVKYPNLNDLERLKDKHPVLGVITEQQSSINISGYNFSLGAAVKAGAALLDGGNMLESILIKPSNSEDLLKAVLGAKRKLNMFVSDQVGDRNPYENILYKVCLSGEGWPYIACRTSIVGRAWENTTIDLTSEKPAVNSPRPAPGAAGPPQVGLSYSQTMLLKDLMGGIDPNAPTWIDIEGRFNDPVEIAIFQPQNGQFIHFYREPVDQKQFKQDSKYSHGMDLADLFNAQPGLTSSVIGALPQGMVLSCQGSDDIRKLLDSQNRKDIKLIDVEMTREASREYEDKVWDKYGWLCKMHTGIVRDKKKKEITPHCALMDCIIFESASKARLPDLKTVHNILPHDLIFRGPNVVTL
# protocol-summary: qHTS for Inhibitors of the Functional Ribonucleoprotein Complex (vRNP) of Lymphocytic Choriomeningitis Arenaviruses (LCMV): LCMV Primary Screen - GLuc reporter signal (AID 1347086); note: nearly all actives have a fitted effect of over 70% in size
# measurement-parameters: LCMV minigenome vRNP cell assay, Gaussia luciferase reporter; series mostly up to 57.5 µM
Inconclusive results are not listed. Activity calls are given as the source filed them. The call rests on the fitted dose curve.
assay-endpoint: outcome

> print(dat)
                                   molecule                       experimental.target  obs.value
1  O=CN1CCCCC1C1CC[C@H]2CCCCN2C1 (stereo partly drawn)  Nucleoprotein (Lymphocytic choriomeningitis virus (strain Armstrong)) (UniProt P09992)   inactive
2  CC1(C)O[C@H]2C[C@@H]3[C@H]4CCC5=CC(=O)C=C[C@]5(C)[C@@]4(F)[C@@H](O)C[C@]3(C)[C@]2(C(=O)CO)O1  Nucleoprotein (Lymphocytic choriomeningitis virus (strain Armstrong)) (UniProt P09992)   inactive
3  OCCN1C[C@H](O)[C@@H](O)[C@H](O)[C@@H]1CO  Nucleoprotein (Lymphocytic choriomeningitis virus (strain Armstrong)) (UniProt P09992)   inactive

* * *

# Test system: C33A
# protocol-summary: Primary qHTS to identify gynecologic anti-cancer compounds using libraries of approved drugs and bioactive compounds (AID 1345084); note: nearly all actives have a fitted effect of over 55% in size
# measurement-parameters: Gynecologic cancer cell panel viability, ATPlite luminescence, 48 h; series mostly up to 57.5 µM
# Excerpt: National Center for Advancing Translational Sciences [NCATS] Assay Overview: Chemotherapeutic drug responses vary from cancer to cancer and from patient to patient. […] ATPlite is a luminescence based assay reliant on the conversion of a luciferase substrate to light in the presence of ATP. As a cytotoxic compound will suppress growth and decrease the number of cells, the concentration of ATP will decrease, and less light signal will be detected in the well. […]
Inconclusive results are not listed. Active and inactive are the calls of the source. The call rests on the fitted dose curve; in most records, active means well fitted cell-killing curve with a large enough effect; inconclusive means small, poorly fitted or top-dose-only effect, or effect the other way; inactive means flat fitted curve, though single readings scatter.
Allowed answers: 1 (active), -1 (inactive)

Completed entries (count: 5):
smiles-structure	group
CO/C1=C\C(C)=C\[C@@H](C)[C@@H](O)[C@@H](C)C/C(C)=C/C=C/[C@H](OC)[C@@H]([C@@H](C)[C@@H](O)[C@H](C)[C@@]2(O)C[C@@H](O)[C@H](C)[C@@H](C(C)C)O2)OC1=O	1
C[C@@H]1Cc2c(Cl)cc(C(=O)N[C@@H](Cc3ccccc3)C(=O)O)c(O)c2C(=O)O1	-1
N#Cc1ccc([C@H]2CCCC[C@H]2O)cc1C(F)(F)F	-1
COc1ccc2c3c4n(c2c1)[C@@H](C=C(C)C)OOC(C)(C)C[C@@H]4N1C(=O)[C@@H]2CCCN2C(=O)[C@]1(O)[C@H]3OCC=C(C)C	-1
CN(Cc1cccc(-c2ccncc2)c1)C(=O)Oc1ccc(-c2ccc(C(N)=O)cc2)cc1	-1

For O=C(N[C@H]1CN2CCC1CC2)c1cc2cccc(Cl)c2s1 , which call appears in the assay record?
-1

Hi, sorry to bother you, what did the test record for CCCCCn1cc(C(=O)C2C(C)(C)C2(C)C)c2ccccc21 ?
-1

Dear colleague, could you share the recorded outcome for CC(=O)O[C@H]1CC[C@H]2[C@@H]3CC[C@H]4CC(=O)C=C(C)[C@]4(C)[C@H]3CC[C@]12C when you have a moment?
-1
